Below is a list of entries, each paired with its recorded Activity value.
test system: HT-29; test: Downregulation of c-Myc gene expression in human HT-29 cells assessed as gene expression levels at 15 ug/ml after 48 hrs by RT-qPCR analysis relative to control; type: functional
Result type: Activity (%)

>>> print(df.to_string())
                smiles_notation  result_type  number
0      COc1ccc(-c2ccccc2N)cc1OC     Activity      50
1  COc1ccc(-c2ccc(O)cc2)c(OC)c1     Activity      87
2        COc1ccccc1-c1cccc(O)c1     Activity      50
3            Nc1ccccc1-c1ccccc1     Activity      53
4      COc1cccc(-c2ccc(O)cc2)c1     Activity      34

====

test: Therapeutic index, ratio of IC50 for HEK293 cells to IC50 for human HT-29 cells; format: cell-based; conditions: HEK293 cells versus HT-29 cells, read-out: Ratio IC50
Result type: selectivity ratio

>>> df
                 smiles_notation        result_type  limit_qualifier  number
 0       COc1ccc(-c2ccccc2)cc1OC  selectivity ratio                =     0.6
 1      COc1ccc(-c2cccc(O)c2)cc1  selectivity ratio                =     0.2
 2       Oc1cccc(-c2cccc(O)c2)c1  selectivity ratio                =      28
 3      COc1cccc(-c2cccc(O)c2)c1  selectivity ratio                =       2
 4    COc1ccc(-c2ccc(N)cc2)cc1OC  selectivity ratio                =      12
 5     COc1ccc(-c2ccccc2)c(OC)c1  selectivity ratio                =     0.5
 6         Oc1ccc(-c2ccccc2O)cc1  selectivity ratio                =      38
 7            Nc1ccccc1-c1ccccc1  selectivity ratio                =     3.3
 8    COc1ccc(-c2ccccc2N)c(OC)c1  selectivity ratio                >       2
 9  COc1ccc(-c2cccc(O)c2)c(OC)c1  selectivity ratio                =     0.5
10  COc1ccc(-c2cccc(N)c2)c(OC)c1  selectivity ratio                =     0.6
11        COc1ccccc1-c1ccc(O)cc1  selectivity ratio                =     0.9
12          Oc1ccc(-c2ccccc2)cc1  selectivity ratio                =       2
13      COc1ccc(-c2ccccc2O)cc1OC  selectivity ratio                <     0.2
14  COc1ccc(-c2ccc(N)cc2)c(OC)c1  selectivity ratio                =      10
15    COc1ccc(-c2cccc(N)c2)cc1OC  selectivity ratio                =       5

====

assay: Therapeutic index, ratio of IC50 for HEK293 cells to IC50 for human MCF7 cells; format: cell-based; conditions: HEK293 cells versus MCF7 cells, read-out: Ratio IC50
Result type: selectivity ratio

>>> print(df.to_string())
                                   compound        result_type  limit_qualifier  number
 0                     COc1ccccc1-c1ccccc1O  selectivity ratio                <     0.5
 1               COc1ccc(-c2ccccc2N)c(OC)c1  selectivity ratio                >       2
 2                  Nc1ccc(-c2cccc(O)c2)cc1  selectivity ratio                <     0.6
 3      Oc1ccccc1-c1ccccc1 [2-PHENYLPHENOL]  selectivity ratio                =     0.6
 4                   COc1cccc(-c2ccccc2O)c1  selectivity ratio                =     0.9
 5                COc1ccc(-c2ccccc2)c(OC)c1  selectivity ratio                <     0.3
 6                 COc1ccc(-c2ccc(O)cc2)cc1  selectivity ratio                <     0.1
 7                 COc1ccc(-c2ccccc2O)cc1OC  selectivity ratio                =     0.4
 8             COc1ccc(-c2ccc(N)cc2)c(OC)c1  selectivity ratio                <     0.2
 9                    COc1ccc(-c2ccccc2)cc1  selectivity ratio                <     0.2
10                     Oc1cccc(-c2ccccc2)c1  selectivity ratio                =     0.9
11               COc1ccc(-c2cccc(N)c2)cc1OC  selectivity ratio                <     0.2
12                   COc1ccccc1-c1cccc(O)c1  selectivity ratio                =     1.1
13                 COc1cccc(-c2cccc(O)c2)c1  selectivity ratio                =       1
14                     Nc1cccc(-c2ccccc2)c1  selectivity ratio                =     0.9
15                    Nc1ccccc1-c1cccc(O)c1  selectivity ratio                =     0.7
16                 COc1ccc(-c2cccc(O)c2)cc1  selectivity ratio                =     0.3
17               COc1ccc(-c2ccc(O)cc2)cc1OC  selectivity ratio                >       3
18                   COc1ccc(-c2ccccc2O)cc1  selectivity ratio                =       1
19                    Nc1cccc(-c2ccccc2O)c1  selectivity ratio                =     1.7
20                    COc1cccc(-c2ccccc2)c1  selectivity ratio                =     0.1
21                      Oc1ccccc1-c1ccccc1O  selectivity ratio                =       1
22                       Nc1ccccc1-c1ccccc1  selectivity ratio                =      19
23  Nc1ccc(-c2ccccc2)cc1 [BIPHENYL-4-AMINE]  selectivity ratio                >      69
24                    Nc1ccccc1-c1ccc(O)cc1  selectivity ratio                =     1.1
25                  Oc1ccc(-c2cccc(O)c2)cc1  selectivity ratio                =       9
26                    Nc1ccc(-c2ccccc2O)cc1  selectivity ratio                =     0.6
27                  Oc1ccc(-c2ccc(O)cc2)cc1  selectivity ratio                =     0.3
28                  Nc1ccc(-c2ccc(O)cc2)cc1  selectivity ratio                =     1.2
29                  Nc1cccc(-c2cccc(O)c2)c1  selectivity ratio                =     0.5
30                  COc1ccc(-c2ccccc2)cc1OC  selectivity ratio                =     0.6

====

system: HEK293; test: Cytotoxicity against HEK293 cells assessed as reduction in cell growth after 3 days by MTT assay; type: cell-based; details: Homo sapiens, HEK293, 72 h
Binary label based on IC50 with cut-off 40 µg/mL: below gives t, not below gives f.

>>> print(df.to_string())
                        smiles_notation  class_assignment
 0              Nc1ccc(-c2ccc(O)cc2)cc1                 f
 1                   Oc1ccccc1-c1ccccc1                 t
 2                COc1cccc(-c2ccccc2)c1                 t
 3           COc1ccc(-c2cccc(N)c2)cc1OC                 t
 4                  COc1ccccc1-c1ccccc1                 f
 5                Nc1ccccc1-c1ccc(O)cc1                 f
 6            COc1ccc(-c2ccccc2)c(OC)c1                 t
 7                 Nc1cccc(-c2ccccc2)c1                 f
 8  C=CCc1ccc(O)c(-c2ccc(O)c(CC=C)c2)c1                 t
 9                 Oc1cccc(-c2ccccc2)c1                 t
10         COc1ccc(-c2cccc(N)c2)c(OC)c1                 t
11         COc1ccc(-c2cccc(O)c2)c(OC)c1                 t
12         COc1ccc(-c2ccc(N)cc2)c(OC)c1                 t
13              Oc1ccc(-c2ccc(O)cc2)cc1                 t
14               COc1ccccc1-c1ccc(O)cc1                 f
15             COc1ccc(-c2ccccc2O)cc1OC                 t
16           COc1ccc(-c2ccc(N)cc2)cc1OC                 t
17                  Oc1ccccc1-c1ccccc1O                 f
18           COc1ccc(-c2ccccc2N)c(OC)c1                 f
19                Nc1cccc(-c2ccccc2O)c1                 f
20             COc1cccc(-c2ccc(O)cc2)c1                 t
21                 Oc1ccc(-c2ccccc2)cc1                 f
22                  Nc1ccccc1-c1ccccc1O                 f
23                Oc1cccc(-c2ccccc2O)c1                 f
24                COc1ccc(-c2ccccc2)cc1                 t
25                Oc1ccc(-c2ccccc2O)cc1                 f
26                 COc1ccccc1-c1ccccc1O                 f
27                Nc1ccc(-c2ccccc2O)cc1                 t
28           COc1ccc(-c2cccc(O)c2)cc1OC                 t
29               COc1ccc(-c2ccccc2O)cc1                 f
30             COc1ccc(-c2ccccc2N)cc1OC                 f
31              COc1ccc(-c2ccccc2)cc1OC                 t
32         COc1ccc(-c2ccc(O)cc2)c(OC)c1                 f
33              Nc1cccc(-c2ccc(O)cc2)c1                 f
34           COc1ccc(-c2ccc(O)cc2)cc1OC                 f
35                   Nc1ccccc1-c1ccccc1                 f
36              Oc1ccc(-c2cccc(O)c2)cc1                 t
37              Nc1ccc(-c2cccc(O)c2)cc1                 f
38             COc1ccc(-c2ccc(O)cc2)cc1                 t
39                Nc1ccccc1-c1cccc(O)c1                 t
40             COc1cccc(-c2cccc(O)c2)c1                 t
41              Nc1cccc(-c2cccc(O)c2)c1                 f
42                 Nc1ccc(-c2ccccc2)cc1                 f
43             COc1ccc(-c2cccc(O)c2)cc1                 t
44              Oc1cccc(-c2cccc(O)c2)c1                 f
45           COc1ccc(-c2ccccc2O)c(OC)c1                 f
46               COc1ccccc1-c1cccc(O)c1                 f
